Target: T1, full length human MSR1 with a C-terminal Myc tag, on HEK293.Myc.hMSR1 cells (human, UniProt P21757 1-451)
T1 sequence (looked up): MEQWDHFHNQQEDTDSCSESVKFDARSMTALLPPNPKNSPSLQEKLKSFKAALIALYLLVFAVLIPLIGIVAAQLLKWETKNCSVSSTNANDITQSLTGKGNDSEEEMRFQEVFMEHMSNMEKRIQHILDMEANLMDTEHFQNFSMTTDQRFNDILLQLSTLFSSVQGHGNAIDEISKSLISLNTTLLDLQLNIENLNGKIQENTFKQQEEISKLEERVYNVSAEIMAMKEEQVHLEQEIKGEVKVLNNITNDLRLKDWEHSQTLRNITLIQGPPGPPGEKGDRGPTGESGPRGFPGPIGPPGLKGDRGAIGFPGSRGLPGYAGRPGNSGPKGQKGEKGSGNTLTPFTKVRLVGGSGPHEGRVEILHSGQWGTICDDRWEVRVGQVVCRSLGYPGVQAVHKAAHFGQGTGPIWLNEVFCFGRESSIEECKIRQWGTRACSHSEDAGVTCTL
Assay: cell-based or functional assay
Value Kind: IC50 of Dil-Oxidized LDL uptake inhibition

{"Binder": "H1H27731P-N297Q (antibody, V domains shown, human IgG1 Fc with N297Q) VH: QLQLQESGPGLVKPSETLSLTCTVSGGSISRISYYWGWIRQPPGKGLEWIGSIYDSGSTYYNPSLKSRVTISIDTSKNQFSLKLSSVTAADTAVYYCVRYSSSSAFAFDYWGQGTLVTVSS VL: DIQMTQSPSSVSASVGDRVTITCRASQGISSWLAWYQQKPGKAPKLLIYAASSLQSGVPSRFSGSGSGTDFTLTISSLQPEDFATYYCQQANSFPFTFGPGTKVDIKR", "Observed Value": "> 10 nM"}
{"Binder": "H1H21234N (antibody, human IgG1, V domains shown, original human IgG1 Fc) VH: QVQLQESGPGLVKPSETLSLTCTVTGGSISRNYWSWIRQPPGKGLEWIGYIYYSGSIDYNPSLKSRVTISVDTSKNQFSLKLSSMTAADTAVYYCARDRWNWKYGMDVWGQGTTVIVSS VL: EIVLTQSPGTLSLSPGERATLSCRASQTVRNNYLAWYHQKPGQAPRLLIYGASSRATGIPDRFSGSGSGTDFTLTISRLEPEDFTVYYCHQYGNSPWTFGQGTKMEIKR", "Observed Value": "4.3 nM"}

Read the next record carefully.
Q) Any idea what IC50 of Dil-Oxidized LDL uptake inhibition was measured for H1H21234N-N297Q (antibody, human IgG1, V domains shown, human IgG1 Fc with N297Q point mutation (EU numbering)) VH: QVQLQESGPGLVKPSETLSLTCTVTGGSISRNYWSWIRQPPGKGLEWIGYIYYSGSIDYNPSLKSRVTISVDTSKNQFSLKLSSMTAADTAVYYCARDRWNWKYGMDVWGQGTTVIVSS VL: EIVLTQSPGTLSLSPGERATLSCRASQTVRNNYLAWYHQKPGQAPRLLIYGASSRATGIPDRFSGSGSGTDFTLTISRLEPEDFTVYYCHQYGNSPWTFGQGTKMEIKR ?
A) 6.1 nM
